Just for reference, PubChem BioAssay (NCI) is where these values come from.

Tested on: HCT-15 colon
procedure_details: NCI tumour cell line growth inhibition, 48 h
Measured TGI by item
readout_name: TGI (µM)

{"molecule": "CCOC(=O)[C@H]1Nc2ccc(Cl)cc2[C@H]2CCC[C@@H]12", "qualifying_sign": ">", "reported_measurement": 100}
{"molecule": "CN(C)CC1CC/C(=C\\c2ccc(Cl)cc2)C1=O (stereo unspecified)", "qualifying_sign": "=", "reported_measurement": 9.75}
{"molecule": "C=CCCCCNC(=O)C[C@@H]1C2=C(CC[C@H]1O[Si](C)(C)C(C)(C)C)N1C(=O)CCC/C=C\\C1C2 (stereo partly specified)", "qualifying_sign": "=", "reported_measurement": 27}
{"molecule": "Cc1cc(=O)n2nnc3c4ccccc4ccc3n12", "qualifying_sign": "=", "reported_measurement": 10.4}
{"molecule": "CCC(N)(C(=O)O)C(C)C (stereo unspecified)", "qualifying_sign": ">", "reported_measurement": 100}
{"molecule": "COc1cc(-c2nn(-c3cccc(NC(=O)Nc4cccc(C(F)(F)F)c4)c3)cc2-c2ccncc2)ccc1Cl", "qualifying_sign": "=", "reported_measurement": 10.8}

###

System: NCI-H23 lung
procedure_details: NCI tumour cell line growth inhibition, 48 h
Where a SMILES comes first, the peptide text is derived from it.
The entries below are paired with their reported TGI.

{"molecule": "C=C1CC2(CCOc3ccc(Cl)cc32)OC1=O (centres undefined)", "TGI": "19.5 µM"}
{"molecule": "CC(=O)NC1C(OCc2ccccc2)OC(CO)C(O)C1OC(C)C(=O)NC(C)C(=O)N[C@@H](CCC(=O)OCCCNC1c2ccccc2Nc2cccc([N+](=O)[O-])c21)C(N)=O (some centres undefined)", "TGI": "0.0295 µM"}
{"molecule": "CC(C)(C)OC(=O)NC(CSCc1ccc(C(=O)c2ccccc2)cc1)C(=O)O (centres undefined)", "TGI": "> 100 µM"}
{"molecule": "O=C1C(C=NC(=S)c2ccccc2)=C(O)c2ccccc21", "TGI": "> 100 µM"}
{"molecule": "COc1ccc(/C=C/C(=O)c2sc(NC(=S)NC(=O)c3ccc(Cl)cc3)nc2C)cc1OC", "TGI": "> 100 µM"}
{"molecule": "O=C1Nc2c(Cl)cc(Cl)cc2C1=O", "TGI": "48.7 µM"}
{"molecule": "Cc1cccc(C)c1NC(=O)C(=O)C(C#N)c1ccccc1 (centres undefined)", "TGI": "> 100 µM"}
{"molecule": "CCCCNC(=O)c1cc(S(=O)(=O)n2cc[nH]c2=O)c(SC)cc1Cl", "TGI": "> 100 µM"}
{"molecule": "CC(C)N(CCCNC(=O)Nc1ccc(C(C)(C)C)cc1)C[C@H]1O[C@@H](n2ccc3c(N)ncnc32)[C@H](O)[C@@H]1O", "TGI": "> 100 µM"}
{"molecule": "Fc1cccc(C2SCC3=Nc4ccccc4CN32)c1 (centres undefined)", "TGI": "> 100 µM"}
{"molecule": "N#CC1CCCC2SC(F)(F)C(F)(F)C12 (centres undefined)", "TGI": "> 100 µM"}
{"molecule": "CCC(N)(C(=O)O)C(C)C (centres undefined)", "TGI": "> 100 µM"}
{"molecule": "Cc1ccc(C2=NN(c3ccc(S(C)(=O)=O)cc3)C(=O)CC2)cc1", "TGI": "> 100 µM"}
{"molecule": "CN(C)c1ccc(/C=C2\\C[C@H]3[C@@H]4CC=C5C[C@@H](O)CC[C@]5(C)[C@H]4CC[C@]3(C)C2=O)cc1", "TGI": "81.2 µM"}
{"molecule": "COc1ccc(C(=S)N(C)NC(=O)CC(=O)NN(C)C(=S)c2ccc(OC)cc2)cc1", "TGI": "> 100 µM"}
{"molecule": "CC(=O)N/C=C/c1cc(O)ccc1O", "TGI": "56.1 µM"}
{"molecule": "C=C1C(O)C2C(=C(CCC3CC3)C13CC3)C(=O)C(C)(C)C2O (centres undefined)", "TGI": "> 100 µM"}
{"molecule": "O=C1C(Cl)C2(CC(/C=C/c3cccs3)=NN2c2cccc(S(=O)(=O)O)c2)N1c1nc2ccccc2s1 (centres undefined)", "TGI": "> 100 µM"}
{"molecule": "CC1OC(Oc2c(-c3cc(O)c(O)c(O)c3)oc3cc(O)cc(O)c3c2=O)C(O)C(O)C1O (centres undefined)", "TGI": "> 100 µM"}
{"molecule": "NNC(=O)c1ccccc1Nc1nc(-c2cccs2)nc2ccc(Br)cc12", "TGI": "> 100 µM"}
{"molecule": "O=C(O)c1ccc(NCc2nc3cc(Cl)c(Cl)cc3[nH]2)cc1", "TGI": "> 100 µM"}
{"molecule": "S=c1[nH]nc(-c2ccccc2)n1/N=C\\c1ccc(-c2ccc(Cl)cc2)o1", "TGI": "> 100 µM"}
{"molecule": "O=c1oc2ccc(Cl)cc2c2ccccc12", "TGI": "58.2 µM"}
{"molecule": "C[CH2][Sn]([CH2]C)([O]C(=O)c1c(F)cccc1F)[O][Sn]([CH2]C)([CH2]C)[O]C(=O)c1c(F)cccc1F", "TGI": "29.3 µM"}
{"molecule": "CCCCCCCCCCCC[C@@H](O)[C@H]1CC[C@H]([C@H]2CC[C@H]([C@H](O)CC[C@H](O)CCCCCCCC3=C[C@H](C)OC3=O)O2)O1", "TGI": "2.31 µM"}
{"molecule": "c1ccc(-c2nnc(CCCCCCCCc3nnc(-c4ccccc4)o3)o2)cc1", "TGI": "> 100 µM"}
{"molecule": "CCCCOC(=O)CC(CC(=O)OCCCC)(OC(C)=O)C(=O)OCCCC", "TGI": "> 200 µM"}
{"molecule": "CC(=O)Nc1ccc(-c2nnc(SCC(=O)Nc3ccc(Cl)cc3Cl)o2)cc1", "TGI": "> 100 µM"}
{"molecule": "CCn1c(=O)c2cn[nH]c2n(C)c1=O", "TGI": "> 100 µM"}
{"molecule": "CC(=O)OC1C[C@@H](C)C2(CC(c3ccoc3)OC2=O)C2CCC(O)C3(CO3)C12CO (some centres undefined)", "TGI": "> 100 µM"}
{"molecule": "COC[C@@H]1[C@H]2OC(C)(C)O[C@H]2C(=O)N1C(=O)c1ccc(OC)cc1", "TGI": "> 100 µM"}
{"molecule": "COc1ccc(-c2nc(Sc3c([N+](=O)[O-])ncn3C)n[nH]2)cc1", "TGI": "3.97 µM"}
{"molecule": "CCN(CC)CCN1C(=O)CC2[C@@H]3CCc4cc(OC)ccc4C3CC[C@]2(C)C1=O (some centres undefined)", "TGI": "> 100 µM"}
{"molecule": "CCC(C)C(NC(=O)C(NC(=O)C(CC(N)=O)NC(=O)CN)C(C)O)C(=O)NC(C(=O)NC(C)C(=O)NC(C(=O)NC(CCC(=O)O)C(=O)NC(CC(C)C)C(=O)NC(CC(=O)O)C(=O)NC(C(=O)NC(Cc1ccc(O)cc1)C(=O)N1CCCC1C(=O)O)C(C)O)C(C)C)C(C)C (centres undefined) (H-GNTIVAVELDTYP-OH; configuration not given here)", "TGI": "> 50 µM"}
{"molecule": "Cc1[nH]n(-c2ncc(C(=O)O)c(=O)[nH]2)c(=O)c1CCO", "TGI": "> 100 µM"}
{"molecule": "N#CNCC(COCc1ccccc1)c1ccccc1 (centres undefined)", "TGI": "> 100 µM"}
{"molecule": "COc1cc(/C=C/C(=O)c2ccccc2)cc(OC)c1OC", "TGI": "23.3 µM"}
{"molecule": "CCC1=C(C(C)=O)[C@@H]2CCCCC(C(=O)OC)[C@@H]2C1=O (some centres undefined)", "TGI": "> 100 µM"}
{"molecule": "CNC(=S)/C(C#N)=C(\\N)N1CCN(C)CC1", "TGI": "> 100 µM"}
